Every entry's value here was drawn from patent US20230265198A1.

- Experimental Target: T1, neuropilin-1 (NRP1) on HEK293 cells overexpressing NRP1 (UniProt O14786 22-923, limits assumed)
- T1 construct: whole, on cells
- Method: flow cytometry, HEK293-NRP1 vs HEK293
The label condition met is reserved for 100 nM FACS (MFI Ratio) strictly under 3; condition not met covers values equal to or above it.

Quick check: does NRP1-115 (antibody, IgG2, V domains shown) VH: EVQLLESGGGLVQPGGSLRLSCAASGFTFGHYEMDWVRQAPGKGLEWVSSIDDRGRYTYYADSVKGRFTISRDNSKNTLYLQMNSLRAEDTAVYYCARSKIAFDYWGQGTLVTVSS VL: DIQMTQSPSSLSASVGDRVTITCRASQNIRSYLNWYQQKPGKAPKLLIYGRNKRPSGVPSRFSGSGSGTDFTLTISSLQPEDFATYYCQQSYENPLTFGQGTKVEIK have 100 nM FACS (MFI Ratio) under 3?
condition met

Quick check: does NRP1-5 (VHH) VHH: EVQLVESGGGLVQPGGSLRLSCAASGNIDRLYVMGWFRQAPGKEREFVAAINWSSGTTVYADSVKGRFTISADNSKNTAYLQMNSLKPEDTAVYYCARSYSSLFRFDYWGQGTLVTVSS have 100 nM FACS (MFI Ratio) under 3?
condition not met

Quick check: does NRP1-265 (antibody, IgG2, V domains shown) VH: EVQLLESGGGLVQPGGSLRLSCAASGFTFGKYAMTWVRQAPGKGLEWVSGISGSGGRTNYADSVKGRFTISRDNSKNTLYLQMNSLRAEDTAVYYCARDFVAWRGGFRRYYSYNGMDVWGQGTLVTVSS VL: DIQMTQSPSSLSASVGDRVTITCRASQYVSTYLNWYQQKPGKAPKLLIYGTSRLQSGVPSRFSGSGSGTDFTLTISSLQPEDFATYYCQQSYSTPKTFGGGTKVEIK have 100 nM FACS (MFI Ratio) under 3?
condition met

Quick check: does NRP1-67 (VHH) VHH: EVQLVESGGGLVQPGGSLRLSCAASGLYLHSSAMGWFRQAPGKEREFVAAISSSDGSTEYADSVKGRFTISADNSKNTAYLQMNSLKPEDTAVYYCASVRYYDYWSGYYTPTHAGYFESWGQGTLVTVSS have 100 nM FACS (MFI Ratio) under 3?
condition met

Quick check: does NRP1-17 (VHH) VHH: EVQLVESGGGLVQPGGSLRLSCAASGRFSRINSMGWFRQAPGKERELVAAIMWSGGSTKYADSVKGRFTISADNSKNTAYLQMNSLKPEDTAVYYCAAGSPSRLVNMWQYNWGQGTLVTVSS have 100 nM FACS (MFI Ratio) under 3?
condition not met

Quick check: does NRP1-108 (VHH) VHH: EVQLVESGGGLVQPGGSLRLSCAASGNIPPINAMGWFRQAPGKEREWVATITSGGSTTYADSVKGRFTISADNSKNTAYLQMNSLKPEDTAVYYCARDRYFYDTSGNQRSSWFDPWGQGTLVTVSS have 100 nM FACS (MFI Ratio) under 3?
condition met
